tested on: CAKI-1 renal; assay: NCI tumour cell line growth inhibition, 48 h

[
  {
    "Molecule": "COc1ccc2c(c1OC(C)=O)C1=CC(=O)CCC13CCNC3C2 (stereo not given)",
    "TGI": "> 100 µM"
  },
  {
    "Molecule": "O=C1NC(c2cccc(OCc3ccccc3)c2)Nc2ccccc21 (stereo not given)",
    "TGI": "> 32.8 µM"
  },
  {
    "Molecule": "CCN(Cc1ccc(F)cc1)c1ccc(CO)c(OC)c1",
    "TGI": "33.3 µM"
  },
  {
    "Molecule": "CCOC(=O)C(=O)Nc1ccccc1C(C)C",
    "TGI": "> 100 µM"
  },
  {
    "Molecule": "CCCCOC(=O)c1cc(C(=CCC[C@H]2CC[C@@]3(C)[C@@H](CC[C@@H]4[C@@H]3CC[C@]3(C)[C@@H](C(C)CCCC(C)C)CC[C@@H]43)C2)c2cc(Cl)c(O)c(C(=O)OCCCC)c2)cc(Cl)c1O (stereo not given in full)",
    "TGI": "> 50 µM"
  },
  {
    "Molecule": "CCOC(=O)CNc1nnnn1C1OC(CO)C(O)C1O (stereo not given)",
    "TGI": "> 100 µM"
  },
  {
    "Molecule": "CN(CCCn1ccnc1[N+](=O)[O-])CCCn1ccnc1[N+](=O)[O-]",
    "TGI": "> 100 µM"
  },
  {
    "Molecule": "CSc1ccc(C(=O)/C=C/c2ccccc2Cl)cc1",
    "TGI": "30.7 µM"
  },
  {
    "Molecule": "Cc1ccc(NC(=O)OCC(COc2ccc(Cl)cc2Cl)OC(=O)Nc2ccc(C)cc2)cc1 (stereo not given)",
    "TGI": "> 100 µM"
  },
  {
    "Molecule": "CCC[CH2][Pb]([Cl])([CH2]CCC)[CH2]CCC",
    "TGI": "0.199 µM"
  }
]
